Numbers sourced from patent US20250101019A1.

Provide the reported IC50 of each item.
# testedOn: ENPP1 (Homo sapiens (Human))
# Sequence (P22413 whole entry, species assumed): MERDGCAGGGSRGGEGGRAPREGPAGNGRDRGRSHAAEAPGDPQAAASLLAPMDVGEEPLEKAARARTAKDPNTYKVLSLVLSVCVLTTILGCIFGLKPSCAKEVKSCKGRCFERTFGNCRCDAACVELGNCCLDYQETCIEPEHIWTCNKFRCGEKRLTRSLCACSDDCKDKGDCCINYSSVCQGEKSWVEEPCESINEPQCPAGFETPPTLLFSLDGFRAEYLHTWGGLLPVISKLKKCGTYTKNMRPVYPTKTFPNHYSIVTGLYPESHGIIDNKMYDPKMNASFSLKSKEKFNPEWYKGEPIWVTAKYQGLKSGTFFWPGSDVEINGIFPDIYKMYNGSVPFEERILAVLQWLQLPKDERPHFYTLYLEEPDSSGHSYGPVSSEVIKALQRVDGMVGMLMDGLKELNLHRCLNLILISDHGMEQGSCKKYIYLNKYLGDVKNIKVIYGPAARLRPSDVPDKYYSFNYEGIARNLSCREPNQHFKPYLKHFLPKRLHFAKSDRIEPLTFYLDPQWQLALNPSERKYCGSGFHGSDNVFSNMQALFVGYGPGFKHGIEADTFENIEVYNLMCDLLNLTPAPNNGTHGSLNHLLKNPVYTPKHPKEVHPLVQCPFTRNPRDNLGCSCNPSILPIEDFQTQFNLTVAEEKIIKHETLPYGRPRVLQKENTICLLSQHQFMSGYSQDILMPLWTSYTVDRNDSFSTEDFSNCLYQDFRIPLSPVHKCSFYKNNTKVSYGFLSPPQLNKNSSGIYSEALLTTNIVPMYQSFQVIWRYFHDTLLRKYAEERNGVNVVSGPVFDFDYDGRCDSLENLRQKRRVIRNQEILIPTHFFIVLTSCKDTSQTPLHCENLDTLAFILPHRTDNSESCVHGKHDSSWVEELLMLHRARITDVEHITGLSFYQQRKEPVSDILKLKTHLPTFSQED
# protocolSummary: cGAMP-Glo enzymatic assay (2′3′-cGAMP substrate, AMP-Glo readout)
# Format: biochemical
# setupConditions: substrate 2′3′-cGAMP; 25° C. for 60 min; 50 mM Tris pH 8.8

// Input: Cc1ncc2c(c1-c1ccccc1)n(Cc1ncc(S(N)(=O)=O)cc1F)c(=O)n2C [Example 79] . Output its IC50 only.
< 1 nM

// Input: COc1ncc2c(C)cn(Cc3ccc(S(N)(=O)=O)cc3)c2c1-c1ccn(C)n1 [Example 6] . Output its IC50 only.
1 to 10 nM

// Input: [2H]C([2H])([2H])Oc1ncc2nc(C(F)F)n(Cc3ncc(S(N)(=O)=O)cc3F)c2c1-c1ccccc1 [Example 86] . Output its IC50 only.
< 1 nM

// Input: Cc1ncc2nc(C3CC3)n(Cc3c(F)cc(S(N)(=O)=O)cc3F)c2c1-c1ccccc1 [Example 39] . Output its IC50 only.
< 1 nM

// Input: COc1ncc2nc(C)n(Cc3ccc(S(N)(=O)=O)cc3)c2c1-c1ccccc1 [Example 22] . Output its IC50 only.
< 1 nM

// Input: COc1ncc2nc(C)n(Cc3ncc(S(N)(=O)=O)cc3F)c2c1-c1ccccc1 [Example 73] . Output its IC50 only.
< 1 nM

// Input: Cc1ncc2nc(CN3CCCC3)n(Cc3c(F)cc(S(N)(=O)=O)cc3F)c2c1-c1ccccc1 [Example 60] . Output its IC50 only.
< 1 nM

// Input: COc1ncc2nc(C(F)F)n(Cc3ccc(S(N)(=O)=O)cn3)c2c1-c1ccccc1 [Example 75] . Output its IC50 only.
< 1 nM

// Input: COc1ncc2ccn(Cc3ccc(S(N)(=O)=O)cc3)c2c1-c1ccn(C)n1 [Example 5] . Output its IC50 only.
1 to 10 nM

// Input: Cc1ccccc1-c1c(C)ncc2ncn(Cc3c(F)cc(S(N)(=O)=O)cc3F)c12 [Example 28] . Output its IC50 only.
10 to 100 nM

// Input: Cc1ncc2nc(C)n(Cc3c(F)cc(S(N)(=O)=O)cc3F)c2c1C1CC1 [Example 52] . Output its IC50 only.
< 1 nM

// Input: COc1ncc2c(c1-c1ccccc1)n(Cc1ccc(S(N)(=O)=O)cn1)c(=O)n2C [Example 82] . Output its IC50 only.
< 1 nM

// Input: COc1ncc2nc(C)n(Cc3ccc(S(N)(=O)=O)cn3)c2c1-c1ccccc1 [Example 74] . Output its IC50 only.
< 1 nM

// Input: COc1ncc2nc(C(F)(F)F)n(Cc3ncc(S(N)(=O)=O)cc3F)c2c1-c1ccccc1 [Example 78] . Output its IC50 only.
< 1 nM

// Input: Cc1cc(Cn2c(C3CC3)nc3cnc(C)c(-c4ccccc4)c32)ccc1S(N)(=O)=O [Example 55] . Output its IC50 only.
< 1 nM

// Input: COc1ncc2ccn(Cc3ccc(S(N)(=O)=O)cc3)c2c1-c1cnn(C(F)(F)F)c1 [Example 11] . Output its IC50 only.
100 to 1000 nM

// Input: Cc1ncc2nc(C)n(Cc3c(F)cc(S(N)(=O)=O)cc3F)c2c1-c1ccc(F)cc1 [Example 46] . Output its IC50 only.
< 1 nM

// Input: Cc1ncc2nc(C)n(Cc3ccc(S(N)(=O)=O)cc3)c2c1-c1ccccc1 [Example 31] . Output its IC50 only.
< 1 nM

// Input: Cc1ncc2nc(C(F)(F)F)n(Cc3ccc(S(N)(=O)=O)cn3)c2c1-c1ccccc1 [Example 67] . Output its IC50 only.
< 1 nM

// Input: Cc1ncc2nc(C)n(Cc3ccc(OS(N)(=O)=O)cc3)c2c1-c1ccccc1 [Example 37] . Output its IC50 only.
< 1 nM

// Input: Cc1ncc2nc(C)n(Cc3ncc(S(N)(=O)=O)cc3F)c2c1-c1ccccc1 [Example 68] . Output its IC50 only.
< 1 nM

// Input: Cc1ncc2nc(C(F)(F)F)n(Cc3c(F)cc(S(N)(=O)=O)cc3F)c2c1-c1ccccc1 [Example 34] . Output its IC50 only.
< 1 nM

// Input: Cc1ncc2ccn(Cc3ccc(S(N)(=O)=O)cc3)c2c1-c1ccccc1 [Example 15] . Output its IC50 only.
< 1 nM

// Input: Cc1nc2cncc(-c3ccccc3)c2n1Cc1ccc(S(N)(=O)=O)cc1 [Example 40] . Output its IC50 only.
< 1 nM

// Input: COc1ncc2ccn(Cc3ccc(S(N)(=O)=O)cc3)c2c1-n1ccc(C)n1 [Example 8] . Output its IC50 only.
10 to 100 nM

// Input: COc1ncc2nc(C)n(Cc3ccc(S(N)(=O)=O)c(F)c3)c2c1-c1ccccc1 [Example 36] . Output its IC50 only.
< 1 nM

// Input: COc1ncc2ncn(Cc3ccc(S(N)(=O)=O)cc3)c2c1-c1ccccc1 [Example 23] . Output its IC50 only.
< 1 nM

// Input: Cc1ncc2nc(C)n(Cc3c(F)cc(S(N)(=O)=O)cc3F)c2c1-c1cccc(F)c1 [Example 45] . Output its IC50 only.
< 1 nM

// Input: Cc1ncc2c(C)cn(Cc3c(F)cc(S(N)(=O)=O)cc3F)c2c1-c1ccn(C)n1 [Example 17] . Output its IC50 only.
1 to 10 nM

// Input: Cc1ncc2nc(CC3CC3)n(Cc3c(F)cc(S(N)(=O)=O)cc3F)c2c1-c1ccccc1 [Example 51] . Output its IC50 only.
< 1 nM

// Input: Cc1ncc2c(C)cn(Cc3c(F)cc(S(N)(=O)=O)cc3F)c2c1-c1ccccc1 [Example 14] . Output its IC50 only.
< 1 nM

// Input: COc1ncc2c(c1-c1ccccc1)n(Cc1c(F)cc(S(N)(=O)=O)cc1F)c(=O)n2C [Example 56] . Output its IC50 only.
< 1 nM

// Input: Cc1ncc2nc(C3CC3)n(Cc3ncc(S(N)(=O)=O)cc3F)c2c1-c1ccccc1 [Example 70] . Output its IC50 only.
< 1 nM
